Molecular target: T1, cynomolgus IL-36γ, truncated (cynomolgus macaque (Macaca fascicularis), UniProt Q9NZH8 18-167 (human entry), limits assumed)
T1 construct: Untagged after removal of the His-SUMO tag; also called cynomolgus IL-36 gamma; cyIL-36gamma
T1 chain: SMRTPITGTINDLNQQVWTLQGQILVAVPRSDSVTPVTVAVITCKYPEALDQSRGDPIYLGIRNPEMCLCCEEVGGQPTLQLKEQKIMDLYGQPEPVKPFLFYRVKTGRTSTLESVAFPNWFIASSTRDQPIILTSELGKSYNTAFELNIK
Assay: SPR, Biacore, 1:1 Langmuir fit; heads of c3 and c4 printed swapped
Protocol: The humanized antibodies obtained in Example 6 were tested for their binding to recombinant human or cynomolgus macaque IL36a and IL-36γ in Biacore assays. The association time was set to 60 seconds, and the final dissociation time was set to 600 seconds. Equilibrium dissociation constant KD (kd/ka) of exemplary antibodies was determined using a 1:1 Langmuir fit model (see Tables 17-18 below).
Catalogue of koff values
Kindly provide the numeric value in s⁻¹ only, without the unit symbol.

Sample records with koff:
144D464A LV9are HV10b (antibody, V domains shown, Humanized) VH: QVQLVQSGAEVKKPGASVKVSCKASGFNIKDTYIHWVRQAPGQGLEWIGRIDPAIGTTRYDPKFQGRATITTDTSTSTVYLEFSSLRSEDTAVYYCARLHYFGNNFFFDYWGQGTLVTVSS VL: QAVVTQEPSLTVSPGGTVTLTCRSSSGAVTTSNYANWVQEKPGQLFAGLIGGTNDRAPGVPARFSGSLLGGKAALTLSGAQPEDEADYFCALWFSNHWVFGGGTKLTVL : 0.000493
144L249B (antibody, V domains shown, Mouse monoclonal from hybridoma; mouse IgG heavy and lambda light chain; also called mouse antibody 144L249B) VH: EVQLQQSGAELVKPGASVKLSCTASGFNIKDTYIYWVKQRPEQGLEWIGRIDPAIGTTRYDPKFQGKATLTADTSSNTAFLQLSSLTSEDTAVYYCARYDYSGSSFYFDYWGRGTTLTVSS VL: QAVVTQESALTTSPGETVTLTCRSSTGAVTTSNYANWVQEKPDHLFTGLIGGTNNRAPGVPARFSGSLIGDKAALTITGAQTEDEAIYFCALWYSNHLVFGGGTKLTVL : 0.000326

Here is another binder to look at.
Req: Tell us which koff value is on record for 144L249B LV9 HV11 (antibody, V domains shown, Humanized) VH: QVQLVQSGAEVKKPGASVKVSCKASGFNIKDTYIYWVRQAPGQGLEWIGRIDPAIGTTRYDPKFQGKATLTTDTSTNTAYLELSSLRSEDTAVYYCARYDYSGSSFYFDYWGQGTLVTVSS VL: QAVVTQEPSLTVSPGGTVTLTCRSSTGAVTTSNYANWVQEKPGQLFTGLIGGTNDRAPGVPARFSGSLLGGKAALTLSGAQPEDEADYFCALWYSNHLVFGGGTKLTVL
Resp: 0.000866

All figures here come from patent US20210380675A1.
